Species on record: Homo sapiens
Test summary: Liver toxicity in human assessed as induction of drug-induced liver injury by measuring severity class index
// reported DILI_severity_class for each item listed
Result type: DILI_severity_class

molecule=COC1=CC(=O)C[C@@H](C)[C@]12Oc1c(Cl)c(OC)cc(OC)c1C2=O measurement=8
molecule=COCCCC/C(=N\OCCN)c1ccc(C(F)(F)F)cc1 measurement=3
molecule=O=C1CN(/N=C/c2ccc(-c3ccc([N+](=O)[O-])cc3)o2)C(O)=N1 measurement=8
molecule=C=C[C@H]1C[N@@]2CC[C@H]1C[C@@H]2[C@@H](O)c1ccnc2ccc(OC)cc12 measurement=3
molecule="COC(=O)C1=C(C)NC(C)=C(C(=O)OCC(C)C)C1c1ccccc1[N+](=O)[O-] (stereo not drawn)" measurement=3
molecule="CN1CCCCC1CCN1c2ccccc2Sc2ccc([S+](C)[O-])cc21 (stereo not drawn)" measurement=5
molecule=CC(C)(C)NC(=O)[C@@H]1CN(Cc2cccnc2)CCN1C[C@@H](O)C[C@@H](Cc1ccccc1)C(=O)N[C@H]1c2ccccc2C[C@H]1O.O measurement=8
molecule=COc1c(C)c2c(c(O)c1C/C=C(\C)CCC(=O)O)C(=O)OC2 measurement=3

###

Organism: Homo sapiens
Test summary: Liver toxicity in human assessed as induction of drug-induced liver injury by measuring severity class index
// reported DILI_severity_class for each item listed
Result type: DILI_severity_class

compound=C[C@@H](Cc1ccccc1)NC(=O)[C@@H](N)CCCCN result_type=DILI_severity_class measurement=3
compound=Cc1cn([C@H]2C[C@H](N=[N+]=[N-])[C@@H](CO)O2)c(=O)[nH]c1=O result_type=DILI_severity_class measurement=8
compound=COc1ccc(Cc2nccc3cc(OC)c(OC)cc23)cc1OC result_type=DILI_severity_class measurement=5
compound="OC(CCN1CCCC1)(c1ccccc1)C1CCCCC1 (configuration not stated)" result_type=DILI_severity_class measurement=0
compound="CC(=O)O[C@@]12CO[C@@H]1C[C@H](O)[C@@]1(C)C(=O)[C@H](O)C3=C(C)[C@@H](OC(=O)[C@H](O)[C@@H](NC(=O)OC(C)(C)C)c4ccccc4)C[C@@](O)([C@@H](OC(=O)c4ccccc4)[C@H]21)C3(C)C [DOCETAXEL ANHYDROUS]" result_type=DILI_severity_class measurement=3
compound=C#Cc1cccc(Nc2ncnc3cc(OCCOC)c(OCCOC)cc23)c1 result_type=DILI_severity_class measurement=8
compound="CCN(CC)CCNC(=O)c1cc(Cl)c(N)cc1OC [METOCLOPRAMIDE]" result_type=DILI_severity_class measurement=5
compound=CO/N=C(\C(=O)N[C@@H]1C(=O)N2C(C(=O)O)=C(/C=C\c3scnc3C)CS[C@H]12)c1csc(N)n1 result_type=DILI_severity_class measurement=2
compound="CC(CN(C)C)CN1c2ccccc2CCc2ccccc21 (configuration not stated)" result_type=DILI_severity_class measurement=2
compound=CN(C)c1cc(NC(=O)CNC(C)(C)C)c(O)c2c1C[C@H]1C[C@H]3[C@H](N(C)C)C(O)=C(C(N)=O)C(=O)[C@@]3(O)C(O)=C1C2=O result_type=DILI_severity_class measurement=8
compound="CC[C@@H](CO)NC(=O)[C@@H]1C=C2c3cccc4c3c(cn4C)C[C@H]2N(C)C1 [METHYSERGIDE]" result_type=DILI_severity_class measurement=0
compound=CNC(=O)Oc1ccc2c(c1)[C@]1(C)CCN(C)[C@@H]1N2C result_type=DILI_severity_class measurement=0
compound="CNC1(c2ccccc2Cl)CCCCC1=O (configuration not stated)" result_type=DILI_severity_class measurement=0
compound=Cc1ccc(C)c(OCCCC(C)(C)C(=O)O)c1 result_type=DILI_severity_class measurement=4
compound=CC(C)(N)Cc1ccccc1 result_type=DILI_severity_class measurement=0
compound=CN1CCN(C2=Nc3cc(Cl)ccc3Nc3ccccc32)CC1 result_type=DILI_severity_class measurement=5
compound=CC(C)c1c(C(=O)Nc2ccccc2)c(-c2ccccc2)c(-c2ccc(F)cc2)n1CC[C@@H](O)C[C@@H](O)CC(=O)O result_type=DILI_severity_class measurement=5

###

Species: Homo sapiens
Test summary: Liver toxicity in human assessed as induction of drug-induced liver injury by measuring severity class index
Result type: DILI_severity_class

molecule=O=P(O)(O)C(O)(Cc1cccnc1)P(=O)(O)O result_type=DILI_severity_class measurement=3
molecule="CN(CCOc1ccc(NS(C)(=O)=O)cc1)CCc1ccc(NS(C)(=O)=O)cc1 [DOFETILIDE]" result_type=DILI_severity_class measurement=0
molecule=CN(C)[C@@H]1C(O)=C(C(N)=O)C(=O)[C@@]2(O)C(O)=C3C(=O)c4c(O)ccc(Cl)c4[C@@H](O)[C@H]3C[C@@H]12 result_type=DILI_severity_class measurement=3
molecule=COc1cc(C(=O)NS(=O)(=O)c2ccccc2C)ccc1Cc1cn(C)c2ccc(NC(=O)OC3CCCC3)cc12 result_type=DILI_severity_class measurement=8
molecule=O=C(O)c1ccc(-n2nc(-c3ccccc3O)nc2-c2ccccc2O)cc1 result_type=DILI_severity_class measurement=7
molecule=N[C@@H](Cc1ccc(N(CCCl)CCCl)cc1)C(=O)O result_type=DILI_severity_class measurement=5
molecule="NS(=O)(=O)c1cc2c(cc1Cl)N=CNS2(=O)=O [CHLOROTHIAZIDE]" result_type=DILI_severity_class measurement=2
molecule=CCCCc1oc2ccc(NS(C)(=O)=O)cc2c1C(=O)c1ccc(OCCCN(CCCC)CCCC)cc1 result_type=DILI_severity_class measurement=7

###

Species: Homo sapiens
Test summary: Liver toxicity in human assessed as induction of drug-induced liver injury by measuring verified drug-induced liver injury concern status
Result type: DILI_Concern

compound="C=CC(N)CCC(=O)O (stereo not given)" measurement=Ambiguous-Dili-Concern
compound=CN(N=O)C(=O)N[C@@H](C=O)[C@@H](O)[C@H](O)[C@H](O)CO measurement=Ambiguous-Dili-Concern

###

Species: Homo sapiens
Test summary: Liver toxicity in human assessed as induction of drug-induced liver injury by measuring severity class index
// reported DILI_severity_class for each item listed
Result type: DILI_severity_class

compound="COC(=O)N[C@H](C(=O)N[C@@H](Cc1ccccc1)[C@@H](O)CN(Cc1ccc(-c2ccccn2)cc1)NC(=O)[C@@H](NC(=O)OC)C(C)(C)C)C(C)(C)C [ATAZANAVIR]" measurement=3
compound="COc1cc2nc(N(C)CCCNC(=O)C3CCCO3)nc(N)c2cc1OC (centres undefined) [ALFUZOSIN]" measurement=5
compound="N[C@@H]1CON=C1O [CYCLOSERINE]" measurement=3
compound="CNCC[C@@H](Oc1ccccc1C)c1ccccc1 [ATOMOXETINE]" measurement=8
compound="COc1ccccc1OCC(O)COC(N)=O (centres undefined) [METHOCARBAMOL]" measurement=5
compound="NC[C@H](O)c1ccc(O)c(O)c1 [NOREPINEPHRINE]" measurement=0
compound="CC[C@@H]1C(=O)OC[C@@H]1Cc1cncn1C [PILOCARPINE]" measurement=3
compound="CCOC(=O)C1(c2ccccc2)CCN(CCC(C#N)(c2ccccc2)c2ccccc2)CC1 [DIPHENOXYLATE]" measurement=0
compound="COC(=O)[C@H](c1ccccc1)[C@H]1CCCCN1 [DEXMETHYLPHENIDATE]" measurement=7

###

Species on record: Homo sapiens
Test summary: Liver toxicity in human assessed as induction of drug-induced liver injury by measuring verified drug-induced liver injury concern status
Result type: DILI_Concern

compound=C[C@]12CC[C@@H]3c4ccc(O)cc4CC[C@H]3[C@@H]1CC[C@@H]2O measurement=Less-Dili-Concern
compound=CC[C@@H]1C(=O)OC[C@@H]1Cc1cncn1C measurement=Ambiguous-Dili-Concern
compound="CC(=O)N1CCN(c2ccc(OCC3COC(Cn4ccnc4)(c4ccc(Cl)cc4Cl)O3)cc2)CC1 (centres undefined)" measurement=Most-Dili-Concern
compound=OC[C@@H](O)[C@@H](O)[C@H](O)[C@@H](O)CO measurement=No-Dili-Concern
compound=C[C@](N)(Cc1ccc(O)c(O)c1)C(=O)O measurement=Most-Dili-Concern
compound="CCCN[C@H]1CCc2nc(N)sc2C1 [PRAMIPEXOLE]" measurement=Ambiguous-Dili-Concern
compound=CN(C)CCCN1c2ccccc2Sc2ccc(Cl)cc21 measurement=Less-Dili-Concern
compound=Cc1cc2c(s1)Nc1ccccc1N=C2N1CCN(C)CC1 measurement=Less-Dili-Concern
compound=Cc1cn([C@@H]2C[C@@H](O)[C@H](CO)O2)c(=O)[nH]c1=O measurement=Ambiguous-Dili-Concern
compound="C[N+]1(C)[C@@H]2C[C@@H](OC(=O)[C@H](CO)c3ccccc3)C[C@H]1[C@@H]1O[C@@H]12.[Br-] [METHSCOPOLAMINE BROMIDE]" measurement=No-Dili-Concern
compound="Cn1nnc2c(C(N)=O)ncn2c1=O [TEMOZOLOMIDE]" measurement=Less-Dili-Concern
compound="COc1ccccc1OCCNCC(O)COc1cccc2[nH]c3ccccc3c12 (centres undefined)" measurement=Less-Dili-Concern
compound="CCOC(=O)C1(c2ccccc2)CCN(CCC(C#N)(c2ccccc2)c2ccccc2)CC1 [DIPHENOXYLATE]" measurement=No-Dili-Concern
compound=N=C(N)c1ccc(OCCCCCOc2ccc(C(=N)N)cc2)cc1 measurement=Less-Dili-Concern
compound=CNCC[C@@H](Oc1ccccc1C)c1ccccc1 measurement=Most-Dili-Concern
compound=Cc1ccc(N(CC2=NCCN2)c2cccc(O)c2)cc1 measurement=No-Dili-Concern
compound=CC(=O)OCC(CCn1cnc2cnc(N)nc21)COC(C)=O measurement=Ambiguous-Dili-Concern
compound="CN1CCCCC1CCN1c2ccccc2Sc2ccc([S+](C)[O-])cc21 (centres undefined)" measurement=Ambiguous-Dili-Concern
compound=O=[N+]([O-])OCC(CO[N+](=O)[O-])O[N+](=O)[O-] measurement=No-Dili-Concern
compound="Cl.Cl.O=C(O)COCCN1CCN([C@H](c2ccccc2)c2ccc(Cl)cc2)CC1 [LEVOCETIRIZINE DIHYDROCHLORIDE]" measurement=Less-Dili-Concern
compound=NC(=O)[C@@H]1CCCN1C(=O)[C@H](Cc1cnc[nH]1)NC(=O)[C@@H]1CCC(=O)N1 measurement=No-Dili-Concern
compound="C[N+]1(C)CCCC(OC(=O)C(O)(c2ccccc2)c2ccccc2)C1 (centres undefined) [MEPENZOLATE]" measurement=No-Dili-Concern
compound="CC(=O)O.CC(C)[C@@H]1NC(=O)[C@H](CCCCN)NC(=O)[C@@H](Cc2c[nH]c3ccccc23)NC(=O)[C@H](Cc2ccc(O)cc2)NC(=O)[C@@H](NC(=O)[C@H](N)Cc2ccc3ccccc3c2)CSSC[C@@H](C(=O)N[C@H](C(N)=O)[C@@H](C)O)NC1=O [LANREOTIDE ACETATE]" measurement=Ambiguous-Dili-Concern
compound=CC(C)NNC(=O)c1ccncc1 measurement=Most-Dili-Concern
compound="O=C(COc1ccc(Cl)cc1)N1CCN(Cc2ccc3c(c2)OCO3)CC1 [FIPEXIDE]" measurement=Most-Dili-Concern
compound=NCC[C@H](O)C(=O)N[C@@H]1C[C@H](N)[C@@H](O[C@H]2O[C@H](CN)[C@@H](O)[C@H](O)[C@H]2O)[C@H](O)[C@H]1O[C@H]1O[C@H](CO)[C@@H](O)[C@H](N)[C@H]1O measurement=No-Dili-Concern
compound="CC1Cc2ccccc2N1NC(=O)c1ccc(Cl)c(S(N)(=O)=O)c1 (centres undefined) [INDAPAMIDE]" measurement=Ambiguous-Dili-Concern
compound="COc1ccc(OC)c(C(O)CNC(=O)CN)c1 (centres undefined)" measurement=No-Dili-Concern
compound="O=C1Nc2ccc(Cl)cc2C(c2ccccc2Cl)=NC1O (centres undefined)" measurement=Ambiguous-Dili-Concern
compound=C[C@]12CCC(=O)C=C1CC[C@@H]1[C@@H]2CC[C@@]2(C)[C@H]1CC[C@]2(C)O measurement=Less-Dili-Concern
compound="NC[C@H](O)c1ccc(O)c(O)c1 [NOREPINEPHRINE]" measurement=No-Dili-Concern
compound=Cc1nnc2n1-c1ccc(Cl)cc1C(c1ccccc1)=NC2 measurement=Less-Dili-Concern
compound=CCOC(=O)C1=C[C@@H](OC(CC)CC)[C@H](NC(C)=O)[C@@H](N)C1 measurement=Ambiguous-Dili-Concern
compound=CC(C)c1nc(N(C)S(C)(=O)=O)nc(-c2ccc(F)cc2)c1/C=C/[C@@H](O)C[C@@H](O)CC(=O)O measurement=Less-Dili-Concern
